- System: NCI/ADR-RES ovarian
- protocol text: NCI tumour cell line growth inhibition, 48 h
observable: TGI

Observed TGI on NCI/ADR-RES ovarian for "c1cc2c(cc1NC1=NCCO1)CCCC2" , please.
8.84 µM

Observed TGI on NCI/ADR-RES ovarian for "O=P1(N(CCCl)CCCl)Oc2c(Cl)cc(Cl)c(Cl)c2Cc2c(Cl)c(Cl)cc(Cl)c2O1" , please.
> 100 µM

Observed TGI on NCI/ADR-RES ovarian for "O=C1c2cccc3c([N+](=O)[O-])ccc(c23)C(=O)N1CCCCl" , please.
> 10 µM

Observed TGI on NCI/ADR-RES ovarian for "CC(=O)N(C(=O)CC(=O)NNCc1ccccc1Cl)c1ccc(Cl)cc1" , please.
> 10 µM

Observed TGI on NCI/ADR-RES ovarian for "O=c1ncc(I)c[nH]1" , please.
> 100 µM

Observed TGI on NCI/ADR-RES ovarian for "N=C(N)c1ccc(CS(=O)(=O)F)cc1" , please.
> 100 µM

Observed TGI on NCI/ADR-RES ovarian for "Cc1ccc(N/C(=C(/C(Cl)=C(Cl)Cl)[N+](=O)[O-])n2nnc3ccccc32)cc1" , please.
69.5 µM

Observed TGI on NCI/ADR-RES ovarian for "NNC(=O)CC(=O)Nc1ccccc1Cl" , please.
> 100 µM

Observed TGI on NCI/ADR-RES ovarian for "COCn1c(=O)n(C)c(=O)c2c1nc1c(c(=O)n(C)c(=O)n1COC)[n+]2[O-]" , please.
> 100 µM

Observed TGI on NCI/ADR-RES ovarian for "O=C(/C=C/c1ccccc1)Nc1ncc(Cc2ccccc2)s1" , please.
5.5 µM

Observed TGI on NCI/ADR-RES ovarian for "COc1ccc(-c2c(-c3cc4c(c(OC)c3OC)OCO4)noc2N)cc1" , please.
0.741 µM

Observed TGI on NCI/ADR-RES ovarian for "SCc1ccc(-c2ccc(CS)cc2)cc1" , please.
32.3 µM

Observed TGI on NCI/ADR-RES ovarian for "CC1(C)CC(=O)c2c([nH]c(=S)c(C#N)c2-c2ccc(Br)cc2)C1" , please.
> 100 µM

Observed TGI on NCI/ADR-RES ovarian for "Cc1nc2ccc(F)cc2c2c1CCN2c1ccccc1" , please.
68 µM

Observed TGI on NCI/ADR-RES ovarian for S=P(C1CCCCC1)(C1CCCCC1)C(c1cccnc1)N1CCCC1 (configuration not stated) , please.
38.6 µM

Observed TGI on NCI/ADR-RES ovarian for Cc1c(C)n(CC(O)CNC2CCCCC2C)c2ccccc12 (configuration not stated) , please.
29.8 µM

Observed TGI on NCI/ADR-RES ovarian for "CCOP(=O)(OCC)c1cc2cc(O)ccc2oc1=O" , please.
> 100 µM

Observed TGI on NCI/ADR-RES ovarian for CCCCC1CCCCCCc2[nH]c(/C=C3\N=C(c4ccc[nH]4)C=C3OC)cc21 (configuration not stated) , please.
0.806 µM

Observed TGI on NCI/ADR-RES ovarian for "CCN(CC)c1ccc(CNc2cc(C)nc3ccc(OC)cc23)cc1" , please.
14.3 µM

Observed TGI on NCI/ADR-RES ovarian for CCC(C#N)NCc1ccc(CNC(C#N)CC)cc1 (configuration not stated) , please.
> 100 µM

Observed TGI on NCI/ADR-RES ovarian for "CN(C)c1ccc(/C=N/NC(=O)CSc2nc3sc4c(c3c(=O)n2-c2ccccc2)CCCCC4)cc1" , please.
> 100 µM

Observed TGI on NCI/ADR-RES ovarian for "COc1c(C(=O)/C(=N/Nc2cccc(Cl)c2)C(C)=O)c(O)c(OC)c2occc12" , please.
> 100 µM

Observed TGI on NCI/ADR-RES ovarian for "O=C(N/C(=C\NC1=NCCS1)C(=O)N1CSC[C@@H]1C(=O)O)c1ccccc1" , please.
> 100 µM

Observed TGI on NCI/ADR-RES ovarian for Nc1nc(Cl)cc(NCC2(CO)CC(CCCc3ccccc3)C2)n1 (configuration not stated) , please.
> 100 µM

Observed TGI on NCI/ADR-RES ovarian for "C[C@@]1([C@H](OC(=O)c2cccc3ccccc23)C(N)=O)CO1" , please.
4.8 µM

Observed TGI on NCI/ADR-RES ovarian for CC(SC(=S)N(C)C)C(=O)Nc1nnc(-c2ccc(Cl)cc2)o1 (configuration not stated) , please.
> 100 µM

Observed TGI on NCI/ADR-RES ovarian for "NS(=O)(=O)c1ccc(C(=O)O)cc1" , please.
> 100 µM

Observed TGI on NCI/ADR-RES ovarian for "CCOC(=O)CC[C@H](NC(=O)c1ccc(CNc2nc3cc(C(F)(F)F)ccc3nc2C(=O)OCC)cc1)C(=O)OCC" , please.
> 100 µM

Observed TGI on NCI/ADR-RES ovarian for CCCCCCCCCCCCCCCCC(=O)NCC(=O)NCC(=O)NC(Cc1ccccc1)C(=O)Oc1ccc([N+](=O)[O-])cc1 (configuration not stated) , please.
42.9 µM

Observed TGI on NCI/ADR-RES ovarian for "Cc1nc2ccccc2c(=O)n1Nc1ccc(C(=O)O)cc1" , please.
> 100 µM

Observed TGI on NCI/ADR-RES ovarian for "Clc1ccc(/C=c2\nc(-c3ccccc3)n3c2nc2ccccc23)cc1" , please.
> 100 µM

Observed TGI on NCI/ADR-RES ovarian for "C#CCn1c(=O)c(I)cn(/C(=C\C(=O)OCC)C(=O)OCC)c1=O" , please.
65.1 µM

Observed TGI on NCI/ADR-RES ovarian for "O=C(c1ccc(-c2ccccc2)cc1)N(Cc1cccnc1)C(=S)N(Cc1cccnc1)C(=O)c1ccc(-c2ccccc2)cc1" , please.
> 100 µM

Observed TGI on NCI/ADR-RES ovarian for "O=S1(=O)OCc2ccccc21" , please.
> 100 µM

Observed TGI on NCI/ADR-RES ovarian for "C=C(C)[C@@H]1CC[C@]2(C(=O)N3CCN(C)CC3)CC[C@]3(C)[C@H](CC[C@@H]4[C@@]5(C)C/C(=C/c6ccncc6)[C@H](O)C(C)(C)[C@@H]5CC[C@]43C)[C@@H]12" , please.
23.2 µM

Observed TGI on NCI/ADR-RES ovarian for "CCCCCCCCCCCCCCCCSS(C)(=O)=O" , please.
7.05 µM

Observed TGI on NCI/ADR-RES ovarian for "CC(=O)Oc1c(C)cc2c(c1C)C(C)(C)CN2C(=O)C(C)(C)C" , please.
> 100 µM

Observed TGI on NCI/ADR-RES ovarian for "O=C1C2=C(C(=O)c3c(O)ccc(O)c31)N(c1cccnc1)Cc1ccccc1O2" , please.
> 25.9 µM

Observed TGI on NCI/ADR-RES ovarian for CC(=O)NC1C(O)C(O)C(CO)OC1n1nc(SCc2ccccc2)c(=O)[nH]c1=O (configuration not stated) , please.
> 100 µM

Observed TGI on NCI/ADR-RES ovarian for O=C1OCCC12CN(Cc1ccccc1)N=N2 (configuration not stated) , please.
> 100 µM

Observed TGI on NCI/ADR-RES ovarian for "Cc1ccc(C(=O)Nc2ccc(CN3CCN(C)CC3)c(C(F)(F)F)c2)cc1C#Cc1cnc(N)c2ccc(C#N)cc12" , please.
10.1 µM

Observed TGI on NCI/ADR-RES ovarian for "CC[C@]12C=CCN3CC[C@@]4(c5ccc(OC)cc5N(C)[C@H]4[C@@](O)(C(=O)OC)[C@@H]1OC(=O)CCCC[P+](c1ccccc1)(c1ccccc1)c1ccccc1)[C@@H]32" , please.
> 100 µM
